Assay: Cmax in Sprague-Dawley rat at 5 mg/kg, iv measured upto 24 hrs by LC-MS/MS analysis
Type: ADME, organism-based
Settings: in vivo
Quantity Kind: Cmax (ng/mL)
Give bare numbers, in ng/mL.

What the record says about Cc1cc(OCCCc2c(C(=O)O)n(CCN3CCOCC3)c3c(-c4ccccc4Cn4cc(CCN(CCN5CCOCC5)S(=O)(=O)c5ccc(F)cc5)c5ccccc54)cccc23)cc(C)c1Cl : Cmax is 46500

====

Test: Metabolic stability in rat liver microsomes assessed as compound remaining measured after 15 mins by LC-MS/MS analysis
Format: ADME, Microsome
Conditions: read-out: Stability
Give measured remaining at 0.25 h for each item. Keep answers brief.
One number for each entry, in %.

{"Compound Structure": "Cc1nn(C)c(COc2ccc(N3CCN(S(=O)(=O)N(C)C)CC3)cc2)c1-c1cccc2c(CCCOc3cccc4ccccc34)c(C(=O)O)n(CCN3CCOCC3)c12", "Unit Descriptor": "%", "remaining at 0.25 h": 67.6}

Okay, next one:
What the record says about Cc1cc(OCCCc2c(C(=O)O)n(CCN3CCOCC3)c3c(-c4ccccc4Cn4cc(CCN(CCN5CCOCC5)S(=O)(=O)c5ccc(F)cc5)c5ccccc54)cccc23)cc(C)c1Cl : remaining at 0.25 h is 67.4

====

Biological target: Induced myeloid leukemia cell differentiation protein Mcl-1 (Homo sapiens, UniProt Q07820)
Sequence (Q07820 whole entry): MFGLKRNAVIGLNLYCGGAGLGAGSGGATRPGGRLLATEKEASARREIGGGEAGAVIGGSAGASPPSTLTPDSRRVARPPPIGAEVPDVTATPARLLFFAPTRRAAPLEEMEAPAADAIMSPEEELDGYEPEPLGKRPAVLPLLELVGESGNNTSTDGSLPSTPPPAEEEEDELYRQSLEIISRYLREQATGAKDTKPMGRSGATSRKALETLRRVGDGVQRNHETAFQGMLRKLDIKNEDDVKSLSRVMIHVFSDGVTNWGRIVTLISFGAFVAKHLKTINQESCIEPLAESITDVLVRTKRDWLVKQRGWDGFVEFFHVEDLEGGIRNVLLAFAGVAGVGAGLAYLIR
Assay: Binding affinity to Mcl-1 (unknown origin) pre-incubated for 30 mins followed by addition FAM-peptide further incubated for 20 mins by fluorescence polarization-based binding assay
Details: read-out: Ki
Quantity Kind: log10 Ki (log10 of the value in nM)
Scale: log10; quantity: Ki; unit before log: nM

{"Compound Structure": "Cc1cc(OCCCc2c(C(=O)O)n(CCN3CCOCC3)c3c(-c4ccccc4Cn4cc(CCNC(=O)c5ccncn5)c5ccccc54)cccc23)cc(C)c1Cl", "Reported Result": 2.08}

Please give log10 Ki, item by item, for the list that follows.
1. Cc1cc(OCCCc2c(C(=O)O)n(CCN3CCOCC3)c3c(-c4ccccc4Cn4cc(CCNC(=O)c5ccc(Br)cc5)c5ccccc54)cccc23)cc(C)c1Cl
2. Cc1cc(OCCCc2c(C(=O)O)n(CCN3CCOCC3)c3c(-c4ccccc4Cn4cc(CCNC(=O)c5ccoc5)c5ccccc54)cccc23)cc(C)c1Cl
3. Cc1cc(OCCCc2c(C(=O)O)n(CCN3CCOCC3)c3c(-c4ccccc4Cn4ccc5ccccc54)cccc23)cc(C)c1Cl
4. C=CC(=O)NCCc1cn(Cc2ccccc2-c2cccc3c(CCCOc4cc(C)c(Cl)c(C)c4)c(C(=O)O)n(CCN4CCOCC4)c23)c2ccccc12

1. 1.71
2. 1.76
3. 2.18
4. 2.28

Please give log10 Ki, item by item, for the list that follows.
1. Cc1cc(OCCCc2c(C(=O)O)n(CCN3CCOCC3)c3c(-c4ccccc4Cn4cc(CCNC(=O)CC(F)(F)F)c5ccccc54)cccc23)cc(C)c1Cl
2. Cc1cc(OCCCc2c(C(=O)O)n(CCN3CCOCC3)c3c(-c4ccccc4Cn4cc(CCNS(=O)(=O)c5ccc(F)cc5)c5ccccc54)cccc23)cc(C)c1Cl
3. COc1ccccc1OCc1c(-c2cccc3c(CCCOc4cc(C)c(Cl)c(C)c4)c(C(=O)O)[nH]c23)c(C(=O)NCC2CC2)nn1C
4. COc1ccc(CN(C)C(=O)c2nn(C)c(COc3ccc(OC)cc3)c2-c2cccc3c(CCCOc4cc(C)c(Cl)c(C)c4)c(C(=O)O)[nH]c23)cc1

1. 1.78
2. 1.68
3. 2.38
4. 2.72

Please give log10 Ki, item by item, for the list that follows.
1. Cc1ccc2c(ccn2Cc2ccccc2-c2cccc3c(CCCOc4cc(C)c(Cl)c(C)c4)c(C(=O)O)n(CCN4CCOCC4)c23)c1
2. Cc1cc(OCCCc2c(C(=O)O)n(CCN3CCOCC3)c3c(-c4ccccc4Cn4cc(CCNC(=O)CCC(F)(F)F)c5ccccc54)cccc23)cc(C)c1Cl
3. COc1ccc2c(ccn2Cc2ccccc2-c2cccc3c(CCCOc4cc(C)c(Cl)c(C)c4)c(C(=O)O)n(CCN4CCOCC4)c23)c1
4. Cc1cc(OCCCc2c(C(=O)O)n(CCN3CCOCC3)c3c(-c4ccccc4Cn4cc(CCNC(=O)c5ccc(Cl)cc5)c5ccccc54)cccc23)cc(C)c1Cl
5. Cc1cc(OCCCc2c(C(=O)O)[nH]c3c(-c4c(C(=O)NCC5CC5)nn(C)c4Cn4cc(C)c5ccccc54)cccc23)cc(C)c1Cl
6. Cc1ccccc1C(=O)NCCc1cn(Cc2ccccc2-c2cccc3c(CCCOc4cc(C)c(Cl)c(C)c4)c(C(=O)O)n(CCN4CCOCC4)c23)c2ccccc12

1: 2.20; 2: 1.99; 3: 2.18; 4: 1.65; 5: 2.00; 6: 1.77

====

Assay: AUC (0 to infinity) in Sprague-Dawley rat at 5 mg/kg, iv measured upto 24 hrs by LC-MS/MS analysis
Type: ADME, organism-based
Conditions: in vivo
Quantity Kind: AUC(0-inf)
// unit must come after the numeric part

What the record says about Cc1cc(OCCCc2c(C(=O)O)n(CCN3CCOCC3)c3c(-c4ccccc4Cn4cc(CCN(CCN5CCOCC5)S(=O)(=O)c5ccc(F)cc5)c5ccccc54)cccc23)cc(C)c1Cl : AUC(0-inf) is 18800 ng·h/mL

====

Molecular target: Induced myeloid leukemia cell differentiation protein Mcl-1 (Homo sapiens, UniProt Q07820)
Experiment: Binding affinity to Mcl-1 (unknown origin) pre-incubated for 30 mins followed by addition FAM-peptide further incubated for 20 mins by fluorescence polarization-based binding assay
Settings: read-out: Ki
Quantity Kind: Ki

Reference set (2 entries):
{"Compound Structure": "Cc1cc(OCCCc2c(C(=O)O)n(CCN3CCOCC3)c3c(-c4ccccc4Cn4cc(CCN(CCN5CCOCC5)S(=O)(=O)c5ccc(F)cc5)c5ccccc54)cccc23)cc(C)c1Cl", "Ki": "0.024 µM"}
{"Compound Structure": "Cc1ccc2c(ccn2Cc2c(-c3cccc4c(CCCOc5cc(C)c(Cl)c(C)c5)c(C(=O)O)[nH]c34)c(C(=O)NCC3CC3)nn2C)c1", "Ki": "0.15 µM"}

Please give Ki, item by item, for the list that follows.
1. COc1cccc2c1ccn2Cc1ccccc1-c1cccc2c(CCCOc3cc(C)c(Cl)c(C)c3)c(C(=O)O)n(CCN3CCOCC3)c12
2. Cc1cc(OCCCc2c(C(=O)O)n(CCN3CCOCC3)c3c(-c4ccccc4Cn4cc(CCNC(=O)c5ccc(C=O)cc5)c5ccccc54)cccc23)cc(C)c1Cl

1. 0.095 µM
2. 0.027 µM

====

Give measured remaining at 1 h for each item. Keep answers brief.
Test: Metabolic stability in rat liver microsomes assessed as compound remaining measured after 60 mins by LC-MS/MS analysis
Assay type: ADME, Microsome
Settings: read-out: Stability
One number for each entry, in %.

{"Compound Structure": "Cc1cc(OCCCc2c(C(=O)O)n(CCN3CCOCC3)c3c(-c4ccccc4Cn4cc(CCN(CCN5CCOCC5)S(=O)(=O)c5ccc(F)cc5)c5ccccc54)cccc23)cc(C)c1Cl", "remaining at 1 h, %": 34.1}

Okay, next one:
What the record says about Cc1nn(C)c(COc2ccc(N3CCN(S(=O)(=O)N(C)C)CC3)cc2)c1-c1cccc2c(CCCOc3cccc4ccccc34)c(C(=O)O)n(CCN3CCOCC3)c12 : remaining at 1 h is 31.6

====

Target: Induced myeloid leukemia cell differentiation protein Mcl-1 (Homo sapiens, UniProt Q07820)
Experiment: Binding affinity to Mcl-1 (unknown origin) pre-incubated for 30 mins followed by addition FAM-peptide further incubated for 20 mins by fluorescence polarization-based binding assay
Details: read-out: Ki
Quantity Kind: pKi
Numbers only, as −log10 of the molar value.

{"Compound Structure": "Cc1cc(OCCCc2c(C(=O)O)n(CCN3CCOCC3)c3c(-c4ccccc4Cn4cc(CCNC(=O)c5ccc(OC(F)(F)F)cc5)c5ccccc54)cccc23)cc(C)c1Cl", "pKi": 7.54}

Please give pKi, item by item, for the list that follows.
1. Cc1cc(OCCCc2c(C(=O)O)[nH]c3c(-c4c(C(=O)NCC5CC5)nn(C)c4COc4ccc(OC(F)(F)F)cc4)cccc23)cc(C)c1Cl
2. COc1ccc(OCc2c(-c3cccc4c(CCCOc5cc(C)c(Cl)c(C)c5)c(C(=O)O)[nH]c34)c(C(=O)Nc3ccccc3F)nn2C)cc1

6.59
6.41

====

Give measured remaining at 0 min for each item. Keep answers brief.
Assay: Metabolic stability in rat plasma assessed as compound remaining measured immediately after addition of compound by LC-MS/MS analysis
Type: ADME, cell-free
Conditions: read-out: Stability
One number for each entry, in %.

{"Compound Structure": "Cc1nn(C)c(COc2ccc(N3CCN(S(=O)(=O)N(C)C)CC3)cc2)c1-c1cccc2c(CCCOc3cccc4ccccc34)c(C(=O)O)n(CCN3CCOCC3)c12", "remaining at 0 min (%)": 100}

Okay, next one:
What the record says about Cc1cc(OCCCc2c(C(=O)O)n(CCN3CCOCC3)c3c(-c4ccccc4Cn4cc(CCN(CCN5CCOCC5)S(=O)(=O)c5ccc(F)cc5)c5ccccc54)cccc23)cc(C)c1Cl : remaining at 0 min is 100
